Origin of measurements: the Human Domainome abundance scans (Beltran et al. 2025)

B1: Ankyrin-2, residues 3571 to 3650; numbered along this chain, Q01484 (parent)
chain: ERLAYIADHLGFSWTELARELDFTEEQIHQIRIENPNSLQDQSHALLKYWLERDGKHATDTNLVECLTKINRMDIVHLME

- Variants of: B1
- Assay Summary: abundance fitness (aPCA) (normalised: wild type 0, dead -1); higher = more abundant; growth selection in yeast, the domain comes from the species named
- Run Conditions: Homo sapiens
Measurement Type: abundance fitness

Please give the documented abundance fitness of "A58M" -0.231

Please give the documented abundance fitness of "D8T" 0.088

Please give the documented abundance fitness of "I31D" -1

Please give the documented abundance fitness of "Q27P" -0.675

Please give the documented abundance fitness of "K56N" -0.071

Please give the documented abundance fitness of "G55H" -0.041

Please give the documented abundance fitness of "L21C" -0.488

Please give the documented abundance fitness of "F12W" 0.005

Please give the documented abundance fitness of "D8W" -0.342

Please give the documented abundance fitness of "R19A" -0.076

Please give the documented abundance fitness of "A58Q" 0.039

Please give the documented abundance fitness of "L21K" -0.32

Please give the documented abundance fitness of "T15P" 0.01

Please give the documented abundance fitness of "I31P" -1.19

Please give the documented abundance fitness of "H29A" -0.013

Please give the documented abundance fitness of "A58V" -0.018

Please give the documented abundance fitness of "T24P" -0.138

Please give the documented abundance fitness of "I6P" -0.412

Please give the documented abundance fitness of "A58T" -0.098

Please give the documented abundance fitness of "G11M" -0.223

Please give the documented abundance fitness of "A7P" -0.36

Please give the documented abundance fitness of "H9R" -0.032

Please give the documented abundance fitness of "G55F" -0.143

Please give the documented abundance fitness of "D41M" -0.019

Please give the documented abundance fitness of "L47G" -0.409

Please give the documented abundance fitness of "F12S" 0.063

Please give the documented abundance fitness of "E16F" -0.09

Please give the documented abundance fitness of "Q27G" -0.144

Please give the documented abundance fitness of "Q27K" 0.051

Please give the documented abundance fitness of "K56Y" -0.13

Please give the documented abundance fitness of "L21I" -0.268

Please give the documented abundance fitness of "N37S" -0.031

Please give the documented abundance fitness of "Q42C" 0.007

Please give the documented abundance fitness of "W50N" -0.041

Please give the documented abundance fitness of "D54I" -0.354

Please give the documented abundance fitness of "A58C" -0.026

Please give the documented abundance fitness of "I31S" -0.772

Please give the documented abundance fitness of "K48R" 0.01

Please give the documented abundance fitness of "N35S" -0.093

Please give the documented abundance fitness of "G11Q" -0.006

Please give the documented abundance fitness of "G11T" -0.141

Please give the documented abundance fitness of "D54C" -0.134

Please give the documented abundance fitness of "L21A" -0.086

Please give the documented abundance fitness of "R53C" -0.086

Please give the documented abundance fitness of "G11C" -0.106

Please give the documented abundance fitness of "D41W" -0.2

Please give the documented abundance fitness of "N35Y" -0.07

Please give the documented abundance fitness of "A58W" -0.167

Please give the documented abundance fitness of "R53K" -0.029

Please give the documented abundance fitness of "W50K" 0.063

Please give the documented abundance fitness of "I33D" -0.105

Please give the documented abundance fitness of "R19Q" 0.046

Please give the documented abundance fitness of "S13F" -0.036

Please give the documented abundance fitness of "I33N" -0.223

Please give the documented abundance fitness of "S43A" -0.281

Please give the documented abundance fitness of "T24C" -0.193

Please give the documented abundance fitness of "L51E" -0.111

Please give the documented abundance fitness of "R32T" -0.127

Please give the documented abundance fitness of "K48S" -0.094

Please give the documented abundance fitness of "Y49D" -0.031

Please give the documented abundance fitness of "Y5V" -0.084

Please give the documented abundance fitness of "A18L" -1.03

Please give the documented abundance fitness of "L46G" -0.574

Please give the documented abundance fitness of "D41Y" -0.213

Please give the documented abundance fitness of "W14C" -0.63

Please give the documented abundance fitness of "R19H" 0.028

Please give the documented abundance fitness of "H57K" 0.056

Please give the documented abundance fitness of "E25L" -0.062

Please give the documented abundance fitness of "W14R" -0.994

Please give the documented abundance fitness of "A4R" -0.007

Please give the documented abundance fitness of "H44G" -0.099

Please give the documented abundance fitness of "E26L" -0.057

Please give the documented abundance fitness of "D8A" 0.034

Please give the documented abundance fitness of "E34I" -0.042

Please give the documented abundance fitness of "P36S" -0.117

Please give the documented abundance fitness of "H9A" -0.113

Please give the documented abundance fitness of "P36N" 0.253

Please give the documented abundance fitness of "W14S" -0.812

Please give the documented abundance fitness of "D54M" -0.013

Please give the documented abundance fitness of "Y5R" -0.505

Please give the documented abundance fitness of "N37P" -0.249

Please give the documented abundance fitness of "E52M" -0.083

Please give the documented abundance fitness of "L17N" -1.15

Please give the documented abundance fitness of "I33E" 0.039

Please give the documented abundance fitness of "I33G" -0.047

Please give the documented abundance fitness of "Q30W" -0.209

Please give the documented abundance fitness of "E26S" -0.091

Please give the documented abundance fitness of "Y49R" -0.129

Please give the documented abundance fitness of "D8K" -0.006

Please give the documented abundance fitness of "D41I" 0.004

Please give the documented abundance fitness of "W14K" -1
